Where these numbers come from: ChEMBL document CHEMBL1201862

# Test system: EKVX
# test-name: NCI tumour cell line growth inhibition, 48 h
The source made the active and inactive calls. Rule as the data show it: active = GI50 up to about 1.1 µM and inactive = higher.
property: GI50

| compound | observed-result |
| --- | --- |
| Cc1ccc(C(=O)N2CCN(C(=O)c3ccc(C)cc3)c3ccccc32)cc1 | 20.2 µM (inactive) |
| CCCCCCCC(CC(=O)NC(CO)C(=O)NC(CO)CC(C)C)OC(=O)CC(CCCCCCC)OC(=O)CC(CCCCCCC)OC1OC(C)C(O)C(OC2OC(C)C(O)C(OC(C)=O)C2O)C1O (centres undefined) | 15.3 µM (inactive) |
| [N-]=[N+]=C(C(=O)OCC#CCOC(=O)C(=[N+]=[N-])S(=O)(=O)c1ccccc1)S(=O)(=O)c1ccccc1 | > 10 µM (inactive) |

Request: If you can, please state the reported GI50 value of C=C(CN(C)C)C(=O)c1ccccc1Cl .
Response: > 52.1 µM (inactive)
